Cited source: the kinase profiling compilation of Christmann-Franck et al. (2016)

target: UniProtKB O75385; test: radiometric filter-binding kinase assay, Kinase HotSpot; settings: compound 0.5 µM; ATP 10 µM
Sequence (O75385 whole entry, looked up): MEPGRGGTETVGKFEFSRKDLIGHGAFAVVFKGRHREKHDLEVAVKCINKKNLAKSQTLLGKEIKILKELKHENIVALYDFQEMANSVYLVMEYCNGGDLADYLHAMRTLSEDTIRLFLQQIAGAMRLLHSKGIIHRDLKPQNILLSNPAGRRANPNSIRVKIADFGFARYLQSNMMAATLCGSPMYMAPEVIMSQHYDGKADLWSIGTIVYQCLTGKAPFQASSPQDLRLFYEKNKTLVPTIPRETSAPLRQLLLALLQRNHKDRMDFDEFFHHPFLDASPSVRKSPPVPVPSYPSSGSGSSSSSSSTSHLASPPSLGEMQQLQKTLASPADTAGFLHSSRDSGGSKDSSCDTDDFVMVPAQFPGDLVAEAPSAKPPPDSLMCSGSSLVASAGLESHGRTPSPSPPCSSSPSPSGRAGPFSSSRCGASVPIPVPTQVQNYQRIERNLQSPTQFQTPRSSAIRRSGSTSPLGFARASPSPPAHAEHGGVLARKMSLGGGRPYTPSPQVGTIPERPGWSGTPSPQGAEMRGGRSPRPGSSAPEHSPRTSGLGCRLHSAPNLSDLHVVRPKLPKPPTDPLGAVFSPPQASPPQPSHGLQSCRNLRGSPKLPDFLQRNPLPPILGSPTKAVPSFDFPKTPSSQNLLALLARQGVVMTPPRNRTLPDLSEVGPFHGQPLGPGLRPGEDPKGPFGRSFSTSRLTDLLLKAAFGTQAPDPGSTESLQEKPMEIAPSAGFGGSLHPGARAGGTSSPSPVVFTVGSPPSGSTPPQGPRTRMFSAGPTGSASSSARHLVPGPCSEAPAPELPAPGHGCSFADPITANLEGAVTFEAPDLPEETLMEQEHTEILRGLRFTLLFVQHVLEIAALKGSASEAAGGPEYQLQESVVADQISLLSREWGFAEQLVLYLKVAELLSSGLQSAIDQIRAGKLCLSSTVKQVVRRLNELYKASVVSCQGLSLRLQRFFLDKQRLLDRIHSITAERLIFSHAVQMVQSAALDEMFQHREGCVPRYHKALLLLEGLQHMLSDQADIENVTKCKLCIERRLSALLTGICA
EXPERIMENTAL ENDPOINT: residual activity (%)

INSERT INTO measurements (molecule, experimental_endpoint, readout_units, observed) VALUES
  ('Nc1nc(Nc2ccc(S(N)(=O)=O)cc2)nn1C(=S)Nc1c(F)cccc1F', 'residual activity', '%', 5.03),
  ('NC(=O)c1ccc(N(C(N)=O)c2c(F)cccc2F)nc1-c1ccc(F)cc1F', 'residual activity', '%', 104),
  ('Nc1nc(Nc2ccc(S(N)(=O)=O)cc2)nn1C(=O)c1c(F)cccc1F', 'residual activity', '%', 62.5),
  ('O=C1Nc2ccccc2/C1=C\c1c(Cl)[nH]c2ccccc12', 'residual activity', '%', 106),
  ('CCCNC(=O)Nc1ccc(Oc2ncnc3cc(OC)c(OC)cc23)cc1Cl', 'residual activity', '%', 83.2),
  ('Cc1cc2ncc(-c3ccccc3)nc2cc1C', 'residual activity', '%', 84.1),
  ('O=C(NC(NC(=S)Nc1ccc(F)c([N+](=O)[O-])c1)C(Cl)(Cl)Cl)C(c1ccccc1)c1ccccc1 (stereo not given)', 'residual activity', '%', 99.1),
  ('CS(=O)c1ccc(-c2nc(-c3ccc(F)cc3)c(-c3ccncc3)[nH]2)cc1 (stereo not given)', 'residual activity', '%', 89.3),
  ('CC(C)[C@H](CO)Nc1nc(Nc2cccc(Cl)c2)c2ncn(C(C)C)c2n1', 'residual activity', '%', 67.5),
  ('COc1cc2ncnc(Nc3ccc(F)c(Cl)c3)c2cc1OCCCN1CCOCC1', 'residual activity', '%', 93);

====

biological target: EPHB2 (human) (UniProt P29323); test: radiometric filter-binding kinase assay, Kinase HotSpot; conditions: compound 0.5 µM; ATP 10 µM
Sequence (P29323 whole entry, looked up): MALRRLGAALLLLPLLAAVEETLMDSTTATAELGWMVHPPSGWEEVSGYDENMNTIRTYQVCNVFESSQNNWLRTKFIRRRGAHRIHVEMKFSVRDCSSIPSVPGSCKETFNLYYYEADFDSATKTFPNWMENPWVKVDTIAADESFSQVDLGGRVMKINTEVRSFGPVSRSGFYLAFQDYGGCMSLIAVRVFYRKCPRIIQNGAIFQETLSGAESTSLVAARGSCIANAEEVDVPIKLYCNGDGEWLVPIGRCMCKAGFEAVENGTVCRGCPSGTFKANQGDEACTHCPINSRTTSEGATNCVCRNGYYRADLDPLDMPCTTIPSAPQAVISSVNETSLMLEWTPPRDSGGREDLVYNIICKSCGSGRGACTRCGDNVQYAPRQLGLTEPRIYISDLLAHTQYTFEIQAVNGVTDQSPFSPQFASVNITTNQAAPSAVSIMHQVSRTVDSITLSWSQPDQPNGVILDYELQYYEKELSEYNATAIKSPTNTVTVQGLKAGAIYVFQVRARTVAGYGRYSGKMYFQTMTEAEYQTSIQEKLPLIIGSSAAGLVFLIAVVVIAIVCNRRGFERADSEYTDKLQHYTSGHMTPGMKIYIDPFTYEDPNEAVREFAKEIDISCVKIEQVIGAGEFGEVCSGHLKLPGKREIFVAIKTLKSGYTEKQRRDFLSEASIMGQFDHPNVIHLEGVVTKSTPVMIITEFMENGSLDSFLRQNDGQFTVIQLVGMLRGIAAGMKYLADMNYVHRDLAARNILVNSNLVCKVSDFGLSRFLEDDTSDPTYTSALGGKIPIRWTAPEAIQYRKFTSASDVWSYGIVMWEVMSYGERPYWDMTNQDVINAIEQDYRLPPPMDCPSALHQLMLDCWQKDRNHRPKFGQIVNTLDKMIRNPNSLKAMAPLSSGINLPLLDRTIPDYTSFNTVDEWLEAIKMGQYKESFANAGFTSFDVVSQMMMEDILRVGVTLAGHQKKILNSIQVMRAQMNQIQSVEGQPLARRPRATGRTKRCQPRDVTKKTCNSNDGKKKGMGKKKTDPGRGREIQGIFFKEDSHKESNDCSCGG
EXPERIMENTAL ENDPOINT: residual activity (%)

INSERT INTO measurements (compound, experimental_endpoint, readout_units, observed) VALUES
  ('Cc1ccc(NC(=O)c2ccc(CN3CCN(C)CC3)cc2)cc1Nc1nc(-c2cccnc2)cs1', 'residual activity', '%', 95.3),
  ('O=C(NC(NC(=S)Nc1ccc(F)c([N+](=O)[O-])c1)C(Cl)(Cl)Cl)C(c1ccccc1)c1ccccc1 (stereo not given)', 'residual activity', '%', 101),
  ('CS(=O)c1ccc(-c2nc(-c3ccc(F)cc3)c(-c3ccncc3)[nH]2)cc1 (stereo not given)', 'residual activity', '%', 108),
  ('NC(=O)c1ccc(N(C(N)=O)c2c(F)cccc2F)nc1-c1ccc(F)cc1F', 'residual activity', '%', 107),
  ('COc1cc2nccc(Oc3ccc(NC(=S)NC(=O)c4ccccc4C)cc3)c2cc1OC', 'residual activity', '%', 93.5),
  ('CCN1/C(=C/C(C)=O)Sc2ccc(OC)cc21', 'residual activity', '%', 98.3),
  ('CC(C)(C)c1nc2c3ccc(F)cc3c3c(=O)[nH]ccc3c2[nH]1', 'residual activity', '%', 92.8),
  ('O=c1cc(-c2cccc3c2Sc2ccccc2S3)oc(N2CCOCC2)c1', 'residual activity', '%', 102),
  ('CC(C)n1cnc2c(Nc3cccc(Cl)c3)nc(NCCO)nc21', 'residual activity', '%', 89.8),
  ('O=C1Nc2cc(Br)ccc2/C1=C1/Nc2ccccc2/C1=N\O', 'residual activity', '%', 74.7);
